assay: Acid dissociation constants (pk) by pH-potentiometric titration, Schwarzenbach method; format: physicochemical; conditions: aqueous solution; C = 0.02M; ionic strength 0.5 (KNO3); 22° C.; titration with 0.05M aqueous NaOH solution (footnote 2)
assayMetric: pk2

These solved cases illustrate the format of a correct answer.
O=C(CC(=O)NCCc1cnc[nH]1)NCCc1cnc[nH]1 [Compound 2] = 11.27^(2)
O=C(CCCCC(=O)NCCc1cnc[nH]1)NCCc1cnc[nH]1 [Compound 12] = 11.95^(2)
O=C(CCC(=O)NCCc1cnc[nH]1)NCCc1cnc[nH]1 [Compound 3] = 11.27^(2)

Let us examine a further case.
Specify measured pk2 for O=C(CCCC(=O)NCCc1cnc[nH]1)NCCc1cnc[nH]1 [Compound 11] .
11.89^(2)
